Just for reference, patent US20210230599 is where these values come from.

target: Interleukin-8 (IL8, CXCL8), C-terminal His-tagged (Homo sapiens, UniProt P10145 SEQ:1-72); assay: TR-FRET, 1 mM Ca, 1 mM Mg, room temperature; conditions: tags: C-terminal 6xHis (Sino Biological); label: Alexa Fluor 647
Sequence (P10145 28-99): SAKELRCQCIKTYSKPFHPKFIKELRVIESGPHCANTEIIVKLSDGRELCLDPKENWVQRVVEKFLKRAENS
Property name: pKd
The meaning of pKd here: minus log10 of the concentration in molar units.

Quote pKd reported for UGUCGCCCUACGUAAACCGCUAUUUGCGACUGCGGU (ssRNA, 2'-F G, 2'-OMe A/C/U, 5' C6NH2, 3' idT) [Aptamer 19] please.
8.40
